Tested on: SW1990 (Pancreatic Carcinoma)
EXPERIMENTAL_PROTOCOL: combination Emax (second highest fraction inhibited in the dose matrix, 72 h); higher = more inhibition; extreme values may be limits of the assay
Entries and their combination Emax
The response must contain the number and no unit.

A selection of reference data follows.
>>> reading("Cn1cnc2c(F)c(Nc3ccc(Br)cc3Cl)c(C(=O)NOCCO)cc21 [Selumetinib] + CC(C)n1c(=O)n(C)c2cnc3cc(F)c(-c4ccc(OCCCN5CCCCC5)nc4)cc3c21 [AZD1390] (first compound max 10 µM, 7x7, partner max 0.3 µM)")
0.202
>>> reading("Cc1c2c(nn1C)CSCc1cc(n(C)n1)CSc1cc(c3ccccc3c1)OCCCc1c(C(=O)O)n(C)c3c-2c(Cl)ccc13 [AZD5991] + CCN(CCO)CCCOc1ccc2c(Nc3cc(CC(=O)Nc4cccc(F)c4)[nH]n3)ncnc2c1 [AZD2811] (first compound max 1 µM, 7x7, partner max 1 µM)")
0.298
>>> reading("C[C@@H](c1ccc2nccn2c1)n1nnc2ncc(-c3cnn(C)c3)nc21 [Savolitinib] + CC1(C)CCC(CN2CCN(c3ccc(C(=O)NS(=O)(=O)c4ccc(NCC5CCOCC5)c([N+](=O)[O-])c4)c(Oc4cnc5[nH]ccc5c4)c3)CC2)=C(c2ccc(Cl)cc2)C1 [Venetoclax] (first compound max 1 µM, 7x7, partner max 1 µM)")
0.225
>>> reading("N#Cc1cnc(Nc2cc(NC[C@H]3CNCCO3)c(C(F)(F)F)cn2)cn1 [SRA737] + Nc1ccn([C@@H]2O[C@H](CO)[C@@H](O)C2(F)F)c(=O)n1 [Gemcitabine] (first compound max 10 µM, 7x7, partner max 0.3 µM)")
0.505
>>> reading("C[C@@H](c1ccc2nccn2c1)n1nnc2ncc(-c3cnn(C)c3)nc21 [Savolitinib] + Cc1c2c(nn1C)CSCc1cc(n(C)n1)CSc1cc(c3ccccc3c1)OCCCc1c(C(=O)O)n(C)c3c-2c(Cl)ccc13 [AZD5991] (first compound max 1 µM, 7x7, partner max 1 µM)")
0.127

Consider the compound shown here: CC(=O)c1c(C)c2cnc(Nc3ccc(N4CCNCC4)cn3)nc2n(C2CCCC2)c1=O [Palbociclib] + Cc1c2c(nn1C)CSCc1cc(n(C)n1)CSc1cc(c3ccccc3c1)OCCCc1c(C(=O)O)n(C)c3c-2c(Cl)ccc13 [AZD5991] (first compound max 10 µM, 7x7, partner max 1 µM) What is its recorded combination Emax? 0.204

Item under review: CC1(C)CCC(CN2CCN(c3ccc(C(=O)NS(=O)(=O)c4ccc(NCC5CCOCC5)c([N+](=O)[O-])c4)c(Oc4cnc5[nH]ccc5c4)c3)CC2)=C(c2ccc(Cl)cc2)C1 [Venetoclax] + C[C@@H](Nc1cc(F)cc(F)c1)c1cc(C(=O)N(C)C)cc2c(=O)cc(N3CCOCC3)oc12 [AZD8186] (first compound max 1 µM, 7x7, partner max 3 µM) . Reported combination Emax? 0.452

====

System: DMS-273 (Small Cell Lung Carcinoma)
EXPERIMENTAL_PROTOCOL: combination Emax (second highest fraction inhibited in the dose matrix, 72 h); higher = more inhibition; extreme values may be limits of the assay
Known combination Emax of a selection of molecules
Answer with a bare number; do not write a unit.

>>> reading("COc1cccc(OCCCN)c1-c1cc(Nc2cnc(C#N)cn2)n[nH]1 [Prexasertib] + O=C(c1cc(Cc2n[nH]c(=O)c3ccccc23)ccc1F)N1CCN(C(=O)C2CC2)CC1 [Olaparib] (first compound max 1 µM, 7x7, partner max 10 µM)")
0.919

# input for lookup
Which combination Emax reading was recorded for the molecule NC1(C(=O)N[C@@H](CCO)c2ccc(Cl)cc2)CCN(c2ncnc3[nH]ccc23)CC1 [Capivasertib] + CCN(CCO)CCCOc1ccc2c(Nc3cc(CC(=O)Nc4cccc(F)c4)[nH]n3)ncnc2c1 [AZD2811] (first compound max 10 µM, 7x7, partner max 1 µM) ? 0.906
